Tested on: CTG repeat in the 3′ UTR of human DMPK gene
Test: Dual-cut screening: CTG repeat excision efficiency by loss-of-signal ddPCR
Type: cell-based
Settings: sgRNA pair; primary DM1 patient myoblasts; vehicle (DMSO)
Quick list: Excision efficiency by ddPCR (Vehicle) per entry.
readout kind: Excision efficiency by ddPCR (Vehicle)

1) SluU08 + SluD73 (guide 1 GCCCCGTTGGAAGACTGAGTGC; guide 2 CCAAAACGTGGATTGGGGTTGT; guide RNA; listed as DNA, chemistry not fully specified); 50.12
2) SluU10 + SluD68 (guide 1 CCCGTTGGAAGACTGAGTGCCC; guide 2 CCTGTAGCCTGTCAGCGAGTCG; guide RNA; listed as DNA, chemistry not fully specified); 42.37
3) SluU06 + SluD73 (guide 1 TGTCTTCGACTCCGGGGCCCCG; guide 2 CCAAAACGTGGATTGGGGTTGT; guide RNA; listed as DNA, chemistry not fully specified); 43.4
